These entries and their values trace back to patent US20080214808A1.

testMethodNotes: Gamma irradiation of compound (I) in different containers, amounts of (I) and breakdown products by HPLC
Assay type: physicochemical
conditionDetails: Glass container, gamma dose 5 kGY
endpointLabel: amount of breakdown products (II) [sum of (II-a) and (II-b)]

- molecule: "CCCCCCCCCCCCCCCC(=O)OC1CCCn2c1nc(C)c(CCN1CCC(c3noc4cc(F)ccc34)CC1)c2=O (stereo not shown) [(I)]"
  valueReported: "0.02%"

---

testMethodNotes: Gamma irradiation of compound (I) in different containers, amounts of (I) and breakdown products by HPLC
Format: physicochemical
conditionDetails: Plastic container, gamma dose 20 kGY
endpointLabel: amount of (I) (%)

- compound: "CCCCCCCCCCCCCCCC(=O)OC1CCCn2c1nc(C)c(CCN1CCC(c3noc4cc(F)ccc34)CC1)c2=O (stereo not shown)"
  endpointLabel: "amount of (I)"
  valueReported: 97.9

---

testMethodNotes: Gamma irradiation of compound (I) in different containers, amounts of (I) and breakdown products by HPLC
Type: physicochemical
conditionDetails: Glass container, gamma dose 10 kGY
endpointLabel: amount of (I) (%)

- compound: "CCCCCCCCCCCCCCCC(=O)OC1CCCn2c1nc(C)c(CCN1CCC(c3noc4cc(F)ccc34)CC1)c2=O (stereo not shown) [(I)]"
  valueReported: 98.7

---

testMethodNotes: Gamma irradiation of compound (I) in different containers, amounts of (I) and breakdown products by HPLC
Format: physicochemical
conditionDetails: Glass container, gamma dose 30 kGY

- compound: "CCCCCCCCCCCCCCCC(=O)OC1CCCn2c1nc(C)c(CCN1CCC(c3noc4cc(F)ccc34)CC1)c2=O (stereo not shown)"
  amount of breakdown product (III) / %: 0.46

---

testMethodNotes: Gamma irradiation of compound (I) in different containers, amounts of (I) and breakdown products by HPLC
Assay type: physicochemical
conditionDetails: Glass/metal container, gamma dose 25 kGY
From the text: During pharmaceutical development, aseptic formulations of paliperidone palmitate (I) were initially obtained by gamma irradiation. Compound (I) was irradiated with various doses of gamma rays in different containers.

- compound: "CCCCCCCCCCCCCCCC(=O)OC1CCCn2c1nc(C)c(CCN1CCC(c3noc4cc(F)ccc34)CC1)c2=O (stereo not shown)"
  uom: "%"
  amount of breakdown product (III): 0.35

---

testMethodNotes: Gamma irradiation of compound (I) in different containers, amounts of (I) and breakdown products by HPLC
Type: physicochemical
conditionDetails: Glass container, gamma dose 20 kGY
endpointLabel: amount of breakdown products (II) [sum of (II-a) and (II-b)]

- compound: "CCCCCCCCCCCCCCCC(=O)OC1CCCn2c1nc(C)c(CCN1CCC(c3noc4cc(F)ccc34)CC1)c2=O (stereo not shown)"
  valueReported: "0.17%"

---

testMethodNotes: Gamma irradiation of compound (I) in different containers, amounts of (I) and breakdown products by HPLC
Format: physicochemical
conditionDetails: Glass/metal container, gamma dose 25 kGY
endpointLabel: amount of (I) (%)

- compound: "CCCCCCCCCCCCCCCC(=O)OC1CCCn2c1nc(C)c(CCN1CCC(c3noc4cc(F)ccc34)CC1)c2=O (stereo not shown)"
  endpointLabel: "amount of (I)"
  uom: "%"
  valueReported: 97.2

---

testMethodNotes: Gamma irradiation of compound (I) in different containers, amounts of (I) and breakdown products by HPLC
Assay type: physicochemical
conditionDetails: Glass/metal container, gamma dose 20 kGY
endpointLabel: amount of breakdown products (II) [sum of (II-a) and (II-b)] (%)

- compound: "CCCCCCCCCCCCCCCC(=O)OC1CCCn2c1nc(C)c(CCN1CCC(c3noc4cc(F)ccc34)CC1)c2=O (stereo not shown)"
  valueReported: 0.15
